Recorded values, source patent US20230287082A1.

Molecular target: human NKp30 (human) (UniProt O14931)
Sequence (O14931 19-135 limits assumed): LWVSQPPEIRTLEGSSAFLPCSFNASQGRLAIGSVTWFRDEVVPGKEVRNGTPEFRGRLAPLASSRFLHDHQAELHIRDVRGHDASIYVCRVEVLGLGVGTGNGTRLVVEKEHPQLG
Experiment: BLI, immunoligand on anti-hFc tip
Consider the following binders and their measured koff readings.
Field format: number, assumed s⁻¹, no unit text.

Consider the worked cases shown below.
Q: So what's the measured koff for this one? ΔB7-H6_S3#26-SEED-PGLALA (bispecific antibody, part only; not given: SEED Fc chains and hu225 Fab, part only) chain, part: DLKVEMMAGGTQITPLNDNVTIFCNIFYSQPLNITTMGITWFWKSLTFDKEVKVFEFWDDHQEAFRPGAIVSPWRLKSGDASLRLPGIQLEEAGEYRCEVVVTPYKAQGTVQLEVVASPAS
Ans: 0.0464

Q: So what's the measured koff for this one? ΔB7-H6_S3#1-SEED-PGLALA (bispecific antibody, part only; not given: SEED Fc chains and hu225 EGFR Fab, part only) chain, part: DLKVEMMAGGTQITPLNDNVTIFCNIFYSQPLNITTMGITWFWKSLTFDKEVKVFEFWGDHQEAFRPGAIVSPWRLKSGDASLRLPGIQLEEAGEYRCEVVVTPYKAQGTVQLEVVASPAS
Ans: 0.0295

Q: So what's the measured koff for this one? ΔB7-H6_S3#15-SEED-PGLALA (bispecific antibody, part only; not given: SEED Fc chains and hu225 Fab, part only) chain, part: DLKVEMMAGGTQITPLNDNVTIFCNIFYSQPLNITIMGITWFWKSLTFDKEVKVFEFWGDHQEAFRPGAIVSPWRLKSGDASLRLPGIQLEEAGEYRCEVVVTPYKAQGTVQLEVVASPAS
Ans: 0.0101

***
Q: So what's the measured koff for this one? ΔB7-H6_S3#3-SEED-PGLALA (bispecific antibody, part only; not given: SEED Fc chains and hu225 Fab, part only) chain, part: DLKVEMMAGGTQITPLNDNVTIFCNIFYSQPLNITHMGITWFWKSLTFDKEVKVFEFFGDHQEAFRPGAIVSPWRLKSGDASLRLPGIQLEEAGEYRCEVFVTPYKAQGTVQLEVVASPAS
Ans: 0.109
